Each recorded value in this set is attributed to the supplement of paper PMC7125110.

B1: glmS ribozyme (parent)
chain: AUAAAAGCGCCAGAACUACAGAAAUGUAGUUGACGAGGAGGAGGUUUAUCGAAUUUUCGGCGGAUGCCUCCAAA

# Variants of: B1
# test: self-cleavage kobs at 40 uM GlcN6P; higher = faster cleavage; RNA array
# reportedConditions: with glucosamine-6-phosphate
This sample holds only a part of the variants without activity.
Let's look at some variants and their measured self-cleavage kobs at 40 uM GlcN6P.
propertyLabel: self-cleavage kobs at 40 uM GlcN6P

INSERT INTO measurements (mutationlist, result) VALUES
  ('U30G A39U', '0.000127 s⁻¹'),
  ('A15C G62A', '< 1e-05 s⁻¹'),
  ('G62A A64C', '< 1e-05 s⁻¹'),
  ('G38A U46C A53C U54C C68A', '< 1e-05 s⁻¹');
